Target: Histone deacetylase 1 (Homo sapiens)
Sequence (Q13547 whole entry): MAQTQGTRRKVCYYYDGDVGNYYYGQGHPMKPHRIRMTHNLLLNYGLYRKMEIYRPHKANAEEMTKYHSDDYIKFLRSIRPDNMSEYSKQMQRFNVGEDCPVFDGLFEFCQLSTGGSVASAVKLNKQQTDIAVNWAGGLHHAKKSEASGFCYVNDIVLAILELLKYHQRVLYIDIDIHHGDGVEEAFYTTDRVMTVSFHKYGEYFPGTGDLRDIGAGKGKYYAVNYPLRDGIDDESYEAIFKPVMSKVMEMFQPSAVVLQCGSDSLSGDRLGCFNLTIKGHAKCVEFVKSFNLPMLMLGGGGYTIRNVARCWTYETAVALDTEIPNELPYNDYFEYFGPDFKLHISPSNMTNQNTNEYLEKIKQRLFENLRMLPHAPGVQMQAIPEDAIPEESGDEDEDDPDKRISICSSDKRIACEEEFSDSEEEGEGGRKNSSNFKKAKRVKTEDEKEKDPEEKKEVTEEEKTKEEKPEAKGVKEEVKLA
Test: Inhibition of recombinant full-length human HDAC1 using FITC-H3K27(Ac)-NH2 as substrate by electrophoretic mobility shift assay
pIC50: −log10 of the molar value.
pIC50 overview

- STRUCTURE SMILES STRING: "CCOc1cc(Cn2ccc3cc(C(=O)NCC45C[C@H]6C[C@@H](C4)C[C@@H](C5)C6)ccc32)ccc1C(=O)NO"
  ASSAYED SYSTEM: "Histone deacetylase 1 (Homo sapiens)"
  pIC50: "< 5.00"
- STRUCTURE SMILES STRING: "O=C(NCC12C[C@H]3C[C@@H](C1)C[C@@H](C2)C3)c1ccc2c(ccn2Cc2ccc(C(=O)NO)c(Br)c2)c1"
  ASSAYED SYSTEM: "Histone deacetylase 1 (Homo sapiens)"
  pIC50: 5.14
- STRUCTURE SMILES STRING: "O=C(NCC12C[C@H]3C[C@@H](C1)C[C@@H](C2)C3)c1ccc2c(ccn2Cc2ccc(C(=O)NO)c(O)c2)c1"
  ASSAYED SYSTEM: "Histone deacetylase 1 (Homo sapiens)"
  pIC50: "< 5.00"
- STRUCTURE SMILES STRING: "COc1cc(C(=O)NO)ccc1Cn1ccc2cc(C(=O)NCC34C[C@H]5C[C@@H](C3)C[C@@H](C4)C5)ccc21"
  ASSAYED SYSTEM: "Histone deacetylase 1 (Homo sapiens)"
  pIC50: "< 5.00"
- STRUCTURE SMILES STRING: "O=C(NO)c1ccc(Cn2ccc3cc(C(=O)NCC45C[C@H]6C[C@@H](C4)C[C@@H](C5)C6)ccc32)cc1"
  ASSAYED SYSTEM: "Histone deacetylase 1 (Homo sapiens)"
  pIC50: 6.06
- STRUCTURE SMILES STRING: "O=C(NO)c1ccc(Cn2ccc3cc(C(=O)NCC45C[C@H]6C[C@@H](C4)C[C@@H](C5)C6)ccc32)c(F)c1"
  ASSAYED SYSTEM: "Histone deacetylase 1 (Homo sapiens)"
  pIC50: 6.72
- STRUCTURE SMILES STRING: "O=C(NCC12C[C@H]3C[C@@H](C1)C[C@@H](C2)C3)c1ccc2c(ccn2Cc2ccc(C(=O)NO)c(Cl)c2)c1"
  ASSAYED SYSTEM: "Histone deacetylase 1 (Homo sapiens)"
  pIC50: "< 5.00"
- STRUCTURE SMILES STRING: "Cc1cc(Cn2ccc3cc(C(=O)NCC45C[C@H]6C[C@@H](C4)C[C@@H](C5)C6)ccc32)ccc1C(=O)NO"
  ASSAYED SYSTEM: "Histone deacetylase 1 (Homo sapiens)"
  pIC50: "< 5.00"

====

Target: Histone deacetylase 5 (Homo sapiens, UniProt Q9UQL6)
Sequence (Q9UQL6 whole entry): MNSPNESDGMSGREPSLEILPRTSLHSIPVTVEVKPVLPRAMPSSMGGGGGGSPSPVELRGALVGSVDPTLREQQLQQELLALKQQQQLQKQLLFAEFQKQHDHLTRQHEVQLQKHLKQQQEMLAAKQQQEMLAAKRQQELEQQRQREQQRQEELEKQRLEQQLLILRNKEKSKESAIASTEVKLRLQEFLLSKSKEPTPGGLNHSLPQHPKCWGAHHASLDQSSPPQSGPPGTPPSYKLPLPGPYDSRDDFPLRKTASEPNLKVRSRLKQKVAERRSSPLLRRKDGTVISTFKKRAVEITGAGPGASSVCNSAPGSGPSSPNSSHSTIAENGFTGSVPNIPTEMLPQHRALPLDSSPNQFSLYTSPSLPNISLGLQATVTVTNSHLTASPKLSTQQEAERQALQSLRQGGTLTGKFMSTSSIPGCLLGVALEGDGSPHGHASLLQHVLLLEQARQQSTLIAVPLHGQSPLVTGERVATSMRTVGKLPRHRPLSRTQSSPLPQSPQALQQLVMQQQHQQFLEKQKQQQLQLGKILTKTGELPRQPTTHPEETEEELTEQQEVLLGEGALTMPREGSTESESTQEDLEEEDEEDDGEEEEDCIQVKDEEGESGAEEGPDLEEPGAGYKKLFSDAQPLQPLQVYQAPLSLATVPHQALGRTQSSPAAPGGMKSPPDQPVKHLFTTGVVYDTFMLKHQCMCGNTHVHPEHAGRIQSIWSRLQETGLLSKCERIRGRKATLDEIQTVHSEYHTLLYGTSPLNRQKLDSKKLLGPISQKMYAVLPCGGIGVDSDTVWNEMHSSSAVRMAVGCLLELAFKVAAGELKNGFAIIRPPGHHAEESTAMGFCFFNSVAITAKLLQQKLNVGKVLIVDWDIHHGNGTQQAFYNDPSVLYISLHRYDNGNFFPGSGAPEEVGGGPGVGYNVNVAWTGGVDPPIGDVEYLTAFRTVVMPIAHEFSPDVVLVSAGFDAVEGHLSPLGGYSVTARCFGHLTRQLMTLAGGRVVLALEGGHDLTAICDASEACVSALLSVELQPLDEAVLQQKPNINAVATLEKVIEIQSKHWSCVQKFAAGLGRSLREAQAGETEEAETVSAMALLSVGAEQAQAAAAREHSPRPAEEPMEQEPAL
Assay: Inhibition of recombinant full-length human HDAC5 using FAM-RHKK (trifluor-Ac)-NH2 as substrate by electrophoretic mobility shift assay

- STRUCTURE SMILES STRING: "COc1cc(C(=O)NO)ccc1Cn1ccc2cc(C(=O)NCC34C[C@H]5C[C@@H](C3)C[C@@H](C4)C5)ccc21"
  COMPARISON SIGN: "="
  IC50 [µM]: 1.88
- STRUCTURE SMILES STRING: "O=C(NO)c1ccc(Cn2ccc3cc(C(=O)NCC45C[C@H]6C[C@@H](C4)C[C@@H](C5)C6)ccc32)cc1"
  COMPARISON SIGN: ">"
  IC50 [µM]: 10
- STRUCTURE SMILES STRING: "O=C(NCC12C[C@H]3C[C@@H](C1)C[C@@H](C2)C3)c1ccc2c(ccn2Cc2ccc(C(=O)NO)c(O)c2)c1"
  COMPARISON SIGN: "="
  IC50 [µM]: 7.25
- STRUCTURE SMILES STRING: "O=C(NO)c1ccc(Cn2ccc3cc(C(=O)NCC45C[C@H]6C[C@@H](C4)C[C@@H](C5)C6)ccc32)c(F)c1"
  COMPARISON SIGN: ">"
  IC50 [µM]: 10

====

Target: UniProt:Q96DB2
Sequence (Q96DB2 whole entry): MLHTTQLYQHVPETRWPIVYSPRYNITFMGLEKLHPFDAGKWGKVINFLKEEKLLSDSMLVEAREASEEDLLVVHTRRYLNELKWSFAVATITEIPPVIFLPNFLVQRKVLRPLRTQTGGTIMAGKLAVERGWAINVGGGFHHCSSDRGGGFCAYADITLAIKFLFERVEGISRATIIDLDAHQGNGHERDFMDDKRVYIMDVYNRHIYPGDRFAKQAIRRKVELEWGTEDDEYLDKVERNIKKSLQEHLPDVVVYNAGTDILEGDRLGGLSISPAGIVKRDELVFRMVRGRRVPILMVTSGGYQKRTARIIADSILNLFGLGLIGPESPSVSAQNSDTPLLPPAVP
Assay: Inhibition of recombinant full-length human HDAC11 using FAM-RHKK (trifluor-Ac)-NH2 as substrate by electrophoretic mobility shift assay
pIC50: −log10 of the molar value.
MEASURE: pIC50

- STRUCTURE SMILES STRING: "COc1cc(CN(C)CCC23CC4CC(CC(C4)C2)C3)ccc1C(=O)NO"
  MEASURE: "pIC50"
  COMPARISON SIGN: "="
  TEST RESULT: 5.38
- STRUCTURE SMILES STRING: "O=C(NO)c1ccc(Cn2ccc3cc(C(=O)NCC45C[C@H]6C[C@@H](C4)C[C@@H](C5)C6)ccc32)cc1"
  MEASURE: "pIC50"
  COMPARISON SIGN: "="
  TEST RESULT: 6.32
- STRUCTURE SMILES STRING: "CCOc1cc(Cn2ccc3cc(C(=O)NCC45C[C@H]6C[C@@H](C4)C[C@@H](C5)C6)ccc32)ccc1C(=O)NO"
  MEASURE: "pIC50"
  COMPARISON SIGN: "="
  TEST RESULT: 6.60
- STRUCTURE SMILES STRING: "CCCNNC(=O)c1ccc(Cn2ccc3cc(C(=O)NCC45C[C@H]6C[C@@H](C4)C[C@@H](C5)C6)ccc32)cc1"
  MEASURE: "pIC50"
  COMPARISON SIGN: "="
  TEST RESULT: 5.58
- STRUCTURE SMILES STRING: "O=C(NCC12C[C@H]3C[C@@H](C1)C[C@@H](C2)C3)c1ccc2c(ccn2Cc2ccc(C(=O)NO)c(F)c2)c1"
  MEASURE: "pIC50"
  COMPARISON SIGN: "="
  TEST RESULT: 7.10
- STRUCTURE SMILES STRING: "COc1cc(C(=O)NO)ccc1Cn1ccc2cc(C(=O)NCC34C[C@H]5C[C@@H](C3)C[C@@H](C4)C5)ccc21"
  MEASURE: "pIC50"
  COMPARISON SIGN: "="
  TEST RESULT: 7.03
- STRUCTURE SMILES STRING: "Cc1cc(Cn2ccc3cc(C(=O)NCC45C[C@H]6C[C@@H](C4)C[C@@H](C5)C6)ccc32)ccc1C(=O)NO"
  MEASURE: "pIC50"
  COMPARISON SIGN: "="
  TEST RESULT: 6.46
- STRUCTURE SMILES STRING: "COc1cc(CN(C)CC23CC4CC(CC(C4)C2)C3)ccc1C(=O)NO"
  MEASURE: "pIC50"
  COMPARISON SIGN: "<"
  TEST RESULT: 5.00
- STRUCTURE SMILES STRING: "COc1cc(C(=O)NCC23CC4CC(CC(C4)C2)C3)ccc1C(=O)NO"
  MEASURE: "pIC50"
  COMPARISON SIGN: "="
  TEST RESULT: 5.05
- STRUCTURE SMILES STRING: "O=C(NCC12C[C@H]3C[C@@H](C1)C[C@@H](C2)C3)c1ccc2c(ccn2Cc2ccc(C(=O)NO)c(Cl)c2)c1"
  MEASURE: "pIC50"
  COMPARISON SIGN: "="
  TEST RESULT: 6.85

====

Histone deacetylase 3 (Homo sapiens): recorded IC50 for assorted compounds
Sequence (O15379 whole entry): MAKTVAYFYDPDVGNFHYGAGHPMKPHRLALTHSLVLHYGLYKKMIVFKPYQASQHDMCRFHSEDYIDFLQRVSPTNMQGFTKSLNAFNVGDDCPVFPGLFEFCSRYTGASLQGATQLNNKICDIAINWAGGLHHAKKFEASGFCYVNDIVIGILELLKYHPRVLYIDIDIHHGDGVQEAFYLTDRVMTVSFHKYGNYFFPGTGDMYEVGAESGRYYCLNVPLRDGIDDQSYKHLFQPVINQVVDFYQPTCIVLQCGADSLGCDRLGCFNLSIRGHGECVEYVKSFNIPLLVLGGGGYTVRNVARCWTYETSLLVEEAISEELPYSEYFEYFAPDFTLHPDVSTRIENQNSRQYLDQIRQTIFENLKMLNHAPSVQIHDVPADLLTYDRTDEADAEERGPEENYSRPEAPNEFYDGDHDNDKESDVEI

- STRUCTURE SMILES STRING: "O=C(NCC12C[C@H]3C[C@@H](C1)C[C@@H](C2)C3)c1ccc2c(ccn2Cc2ccc(C(=O)NO)c(F)c2)c1"
  COMPARISON SIGN: "="
  IC50 / nM: 180
- STRUCTURE SMILES STRING: "O=C(NO)c1ccc(Cn2ccc3cc(C(=O)NCC45C[C@H]6C[C@@H](C4)C[C@@H](C5)C6)ccc32)c(F)c1"
  COMPARISON SIGN: "="
  IC50 / nM: 690
- STRUCTURE SMILES STRING: "O=C(NO)c1ccc(Cn2ccc3cc(C(=O)NCC45C[C@H]6C[C@@H](C4)C[C@@H](C5)C6)ccc32)cc1"
  COMPARISON SIGN: "="
  IC50 / nM: 980
- STRUCTURE SMILES STRING: "Cc1cc(Cn2ccc3cc(C(=O)NCC45C[C@H]6C[C@@H](C4)C[C@@H](C5)C6)ccc32)ccc1C(=O)NO"
  COMPARISON SIGN: ">"
  IC50 / nM: 10000
